# SYSTEM_TESTED: Grb2 SH3 domain (Homo sapiens, UniProt P62993)
# Construct: made in house; host or cells: bacteria
# Sequence (P62993 whole entry, the tested form may be a part): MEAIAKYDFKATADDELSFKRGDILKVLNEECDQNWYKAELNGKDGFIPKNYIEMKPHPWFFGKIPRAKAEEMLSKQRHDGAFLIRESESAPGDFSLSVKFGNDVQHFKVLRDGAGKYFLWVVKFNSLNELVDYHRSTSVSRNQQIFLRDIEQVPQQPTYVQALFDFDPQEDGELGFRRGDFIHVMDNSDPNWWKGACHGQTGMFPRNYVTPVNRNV
# MEASUREMENT_NOTES: Tryptophan fluorescence titration of peptides with gst-Grb2
# Type: binding
Where a SMILES comes first, the peptide text is derived from it.
Parameter: log10 of Kd. Scope: all listed entries.
Units before log transform: µM; reported quantity: Kd; transform: log10.

CC(C)C[C@H](NC(=O)[C@H](C)NC(=O)[C@@H]1CCCN1C(=O)[C@@H]1CCCN1C(=O)[C@@H]1CCCN1)C(=O)N1CCC[C@H]1C(=O)N1CCC[C@H]1C(=O)N[C@@H](CCCNC(=N)N)C(=O)N[C@@H](CCCCN)C(=O)N[C@@H](CCCNC(=N)N)C(=O)O [C3Gmut(2)] (H-PPPALPPRKR-OH)
1.37
CC(C)C[C@H](NC(=O)[C@H](C)NC(=O)[C@@H]1CCCN1C(=O)[C@@H]1CCCN1C(=O)[C@@H]1CCCN1)C(=O)N1CCC[C@H]1C(=O)N1CCC[C@H]1C(=O)N[C@@H](CCCCN)C(=O)N[C@@H](CCCCN)C(=O)N[C@@H](CCCNC(=N)N)C(=O)O [CB-1 peptide]
2.15
CC(C)[C@H](NC(=O)[C@@H]1CCCN1C(=O)[C@@H]1CCCN1C(=O)[C@@H]1CCCN1)C(=O)N1CCC[C@H]1C(=O)N1CCC[C@H]1C(=O)N[C@@H](CCCNC(=N)N)C(=O)N[C@@H](CCCNC(=N)N)C(=O)N[C@@H](CCCNC(=N)N)C(=O)N[C@@H](CCCNC(=N)N)C(=O)O [SOS-1, reference compound]
0.55
CC(C)C[C@H](NC(=O)[C@@H]1CCCN1C(=O)[C@@H]1CCCN1)C(=O)N[C@@H](CC(C)C)C(=O)N1CCC[C@H]1C(=O)N1CCC[C@H]1C(=O)N[C@@H](CCCNC(=N)N)C(=O)N[C@@H](CCC(=O)O)C(=O)N1CCC[C@H]1C(=O)N[C@H](C(=O)O)C(C)C [SOS-3, reference compound] (H-PPLLPPREPV-OH)
1.94

Here is another compound to look at.
Request: Return log10 of Kd measured with Grb2 SH3 domain (Homo sapiens, UniProt P62993) given this compound: CC(C)C[C@H](NC(=O)[C@@H]1CCCN1C(=O)[C@@H]1CCCN1C(=O)[C@@H]1CCCN1C(=O)[C@@H]1CCCN1)C(=O)N1CCC[C@H]1C(=O)N1CCC[C@H]1C(=O)N[C@@H](CCCCN)C(=O)N[C@@H](CCCCN)C(=O)N[C@@H](CCCNC(=N)N)C(=O)O [C3Gmut(1)] (H-PPPPLPPKKR-OH)
Result: 2.31
